Each recorded value in this set is attributed to patent US20260139048A1.

- tested.system: T1, His-tagged human TIGIT (human, UniProt Q495A1 22-141)
- T1 construct: SPR analyte; also called human TIGIT protein; not shown: His tag
- T1 sequence: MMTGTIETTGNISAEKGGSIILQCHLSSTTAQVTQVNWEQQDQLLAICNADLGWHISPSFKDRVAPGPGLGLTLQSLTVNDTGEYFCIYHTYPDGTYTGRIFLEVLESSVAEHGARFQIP
- experiment.notes: SPR experiment 3, IgG from HEK293 supernatant captured
What Kd was measured for each of the following?

Reported Kd ( reshaped TIGIT-3 antibody 3VH3 + 3VL1.M1 (antibody, V domains shown, Full-length IgG, tested as HEK293 supernatant) VH: EVQLVESGGGLVQPGGSLRLSCAASGFTFSSYGMSWVRQAPGKGLELVATIKSDGGSTNLPDSVKGRFTISRDNSKNTLYLQMNSLRAEDTAVYYCVRGYFDYWGQGTTVTVSS VL: DIQMTQSPSSLSASVGDRVTITCRASQDIKTALAWYQQKPGKVPKLLIYWSSTRHTGVPSRFSGSGSGTDFTLTISSLQPEDVATYYCQQYYSTPYTFGGGTKVEIK ) = 17 nM

Reported Kd ( reshaped TIGIT-3 antibody 3VH3 + 3VL1 (antibody, V domains shown, Full-length IgG, tested as HEK293 supernatant) VH: EVQLVESGGGLVQPGGSLRLSCAASGFTFSSYGMSWVRQAPGKGLELVATIKSDGGSTNLPDSVKGRFTISRDNSKNTLYLQMNSLRAEDTAVYYCVRGYFDYWGQGTTVTVSS VL: DIQMTQSPSSLSASVGDRVTITCKASQDVKTAVAWYQQKPGKVPKLLIYWSSTRHTGVPSRFSGSGSGTDFTLTISSLQPEDVATYYCQQYYSTPYTFGGGTKVEIK ) = 36 nM

Reported Kd ( reshaped TIGIT-3 antibody 3VH3 + 3VL1.M3 (antibody, V domains shown, Full-length IgG, tested as HEK293 supernatant) VH: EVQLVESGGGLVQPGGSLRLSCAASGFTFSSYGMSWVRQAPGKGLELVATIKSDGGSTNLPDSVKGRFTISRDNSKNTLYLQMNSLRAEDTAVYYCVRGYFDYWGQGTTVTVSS VL: DIQMTQSPSSLSASVGDRVTITCKASQDVKTAVAWYQQKPGKVPKLLIYWASTRHSGVPSRFSGSGSGTDFTLTISSLQPEDVATYYCQQYYSTPYTFGGGTKVEIK ) = 46 nM

Reported Kd ( reshaped TIGIT-3 antibody 3VH3 + 3VL1.M4 (antibody, V domains shown, Full-length IgG, tested as HEK293 supernatant) VH: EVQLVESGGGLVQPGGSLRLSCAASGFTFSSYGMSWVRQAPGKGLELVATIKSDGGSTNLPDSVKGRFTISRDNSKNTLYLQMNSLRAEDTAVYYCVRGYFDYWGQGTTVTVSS VL: DIQMTQSPSSLSASVGDRVTITCKASQDVKTAVAWYQQKPGKVPKLLIYWASTRQSGVPSRFSGSGSGTDFTLTISSLQPEDVATYYCQQYYSTPYTFGGGTKVEIK ) = 55 nM
